TGT: lectin PA-IL (Pseudomonas aeruginosa)
Construct: made in house; host or cells: Escherichia coli BL21(DE3)
Sequence (Q05097 2-122): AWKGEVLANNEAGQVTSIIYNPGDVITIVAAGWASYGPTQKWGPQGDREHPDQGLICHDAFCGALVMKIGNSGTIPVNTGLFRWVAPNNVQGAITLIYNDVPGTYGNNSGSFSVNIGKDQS
ASSAY_PROCEDURE: SPR inhibition of PA-IL binding to immobilized D-galactosides
EXPERIMENTAL_CONDITIONS: SPR; standard D-galactose
MEASUREMENT_TYPE: Potency (IC50 of standard/IC50 of inhibitor)
Numbers only.

Reference set (3 entries):
Specify Potency (IC50 of standard/IC50 of inhibitor) for COC(=O)c1cc(OCc2cn(CCn3cc(CO[C@@H]4O[C@H](CO)[C@H](O)[C@H](O)[C@H]4O)nn3)nn2)c(OCc2cn(CCn3cc(CO[C@@H]4O[C@H](CO)[C@H](O)[C@H](O)[C@H]4O)nn3)nn2)c(OCc2cn(CCn3cc(CO[C@@H]4O[C@H](CO)[C@H](O)[C@H](O)[C@H]4O)nn3)nn2)c1 [Compound 10] and stop.
25.3

Specify Potency (IC50 of standard/IC50 of inhibitor) for O=C[C@H](O)[C@@H](O)[C@@H](O)[C@H](O)CO [D-galactose, reference compound] and stop.
1

Specify Potency (IC50 of standard/IC50 of inhibitor) for COC(=O)c1cc(OCc2cn(CCOCCOCCOCCn3cc(CO[C@@H]4O[C@H](CO)[C@H](O)[C@H](O)[C@H]4O)nn3)nn2)c(OCc2cn(CCOCCOCCOCCn3cc(CO[C@@H]4O[C@H](CO)[C@H](O)[C@H](O)[C@H]4O)nn3)nn2)c(OCc2cn(CCOCCOCCOCCn3cc(CO[C@@H]4O[C@H](CO)[C@H](O)[C@H](O)[C@H]4O)nn3)nn2)c1 [Compound 4] and stop.
27.5

More entries:
Specify Potency (IC50 of standard/IC50 of inhibitor) for OC[C@H]1O[C@@H](OCc2cn(CCOCCOCCOCCn3cc(COCC(COCc4cn(CCOCCOCCOCCn5cc(CO[C@@H]6O[C@H](CO)[C@H](O)[C@H](O)[C@H]6O)nn5)nn4)(COCc4cn(CCOCCOCCOCCn5cc(CO[C@@H]6O[C@H](CO)[C@H](O)[C@H](O)[C@H]6O)nn5)nn4)COCc4cn(CCOCCOCCOCCn5cc(CO[C@@H]6O[C@H](CO)[C@H](O)[C@H](O)[C@H]6O)nn5)nn4)nn3)nn2)[C@H](O)[C@@H](O)[C@H]1O [Compound 7] and stop.
25.6
